- System: NCI-H460 tumor-bearing mice (lung cancer)
- Assay Explanation: Biodistribution: lutetium accumulation in tumor, plasma and healthy tissues by ICP-MS
- Type: in vivo
- Conditions Used: 0.5 mg/kg lutetium conjugate; H460 tumor; 24 h
Label no if % ID/g uptake, H460 tumor, 24 h falls below 8 % ID/g; label yes in every other case.

Request: Confirm if % ID/g uptake, H460 tumor, 24 h reported for the molecule CCNC(=O)c1nnc(-c2cc(C(C)C)c(O)cc2O)n1-c1ccc2c(ccn2CCC2CCN(C(=O)CCNC(=O)[C@@H](CCC(=O)O)NC(=O)[C@@H](CCC(=O)O)NC(=O)[C@@H](CCC(=O)O)NC(=O)COCCOCCNC(=O)[C@H](CCCCNC(=O)CC[C@H](C(=O)O)N3CCN4CCN5CCN(CC3)CC(=O)[O][Lu]([O]C(=O)C5)[O]C(=O)C4)NC(=O)CCCc3ccc(I)cc3)CC2)c1 is 8 % ID/g or above.
Response: no

Request: Input CCNC(=O)c1nnc(-c2cc(C(C)C)c(O)cc2O)n1-c1ccc2c(ccn2CCC2CCN(C(=O)CC[C@H](NC(=O)CC[C@H](C(=O)O)N3CCN4CCN5CCN(CC3)CC(=O)[O][Lu]([O]C(=O)C5)[O]C(=O)C4)C(=O)N3CCC(CCn4ccc5cc(-n6c(C(=O)NCC)nnc6-c6cc(C(C)C)c(O)cc6O)ccc54)CC3)CC2)c1
Response: no

Request: Input CCNC(=O)c1nnc(-c2cc(C(C)C)c(O)cc2O)n1-c1ccc(OC2CCN(C(=O)CCNC(=O)[C@@H](CCC(=O)N3CCC(Oc4ccc(-n5c(C(=O)NCC)nnc5-c5cc(C(C)C)c(O)cc5O)cc4)CC3)NC(=O)CCNC(=O)[C@@H](CCC(=O)O)NC(=O)[C@@H](CCC(=O)O)NC(=O)[C@@H](CCC(=O)O)NC(=O)COCCOCCNC(=O)[C@H](CCCCNC(=O)CC[C@H](C(=O)O)N(CC)CCN3CCN4CCN(C)CC(=O)[O][Lu]([O]C(=O)C4)[O]C(=O)C3)NC(=O)CCCc3ccc(I)cc3)CC2)cc1
Response: yes

Request: Input CCNC(=O)c1nnc(-c2cc(C(C)C)c(O)cc2O)n1-c1ccc(CN2CCN(C(=O)CC[C@H](NC(=O)CCNC(=O)[C@@H](CCC(=O)O)NC(=O)[C@@H](CCC(=O)O)NC(=O)[C@@H](CCC(=O)O)NC(=O)COCCOCCNC(=O)CC[C@H](C(=O)O)N3CCN4CCN5CCN(CC3)CC(=O)[O][Lu]([O]C(=O)C5)[O]C(=O)C4)C(=O)N3CCN(Cc4ccc(-n5c(C(=O)NCC)nnc5-c5cc(C(C)C)c(O)cc5O)cc4)CC3)CC2)cc1
Response: no

Request: Input CCNC(=O)c1nnc(-c2cc(C(C)C)c(O)cc2O)n1-c1ccc(CN2CCN(C(=O)CCNC(=O)[C@@H](CCC(=O)N3CCN(Cc4ccc(-n5c(C(=O)NCC)nnc5-c5cc(C(C)C)c(O)cc5O)cc4)CC3)NC(=O)CCNC(=O)[C@@H](CCC(=O)O)NC(=O)[C@@H](CCC(=O)O)NC(=O)[C@@H](CCC(=O)O)NC(=O)COCCOCCNC(=O)CC[C@H](C(=O)O)N3CCN4CCN5CCN(CC3)CC(=O)[O][Lu]([O]C(=O)C5)[O]C(=O)C4)CC2)cc1
Response: no

Request: Input CCNC(=O)c1nnc(-c2cc(C(C)C)c(O)cc2O)n1-c1ccc(CN2CCN(C(=O)CCNC(=O)[C@@H](CCC(=O)N3CCN(Cc4ccc(-n5c(C(=O)NCC)nnc5-c5cc(C(C)C)c(O)cc5O)cc4)CC3)NC(=O)CCNC(=O)[C@@H](CCC(=O)O)NC(=O)[C@@H](CCC(=O)O)NC(=O)[C@@H](CCC(=O)O)NC(=O)COCCOCCNC(=O)[C@H](Cc3ccccc3)NC(=O)CNC(=O)CNC(=O)CC[C@H](C(=O)O)N3CCN4CCN5CCN(CC3)CC(=O)[O][Lu]([O]C(=O)C5)[O]C(=O)C4)CC2)cc1
Response: no
